The following substances are listed with their measured selectivity ratio values.
Test: Therapeutic index, ratio of MHC10 for hemolytic activity in human RBC to MIC95 against Escherichia coli ATCC 25922
Assay type: toxicity
Details: human red blood cells (erythrocytes), pooled result: one value given for 9 cell lines, strains, targets or settings, read-out: TI

Worked cases, answers included:
| substance | testResult |
| --- | --- |
| H-AARIILRRRFR-NH2 | 14.8 |
| H-AARIILRDRFR-NH2 | 2 |
| H-AARIILRWFRR-NH2 | 87.1 |
| H-AARIILRGRFR-NH2 | 54.3 |

In: Report selectivity ratio for H-AARIILRIRFR-NH2 please.
Out: 37.3

In: Which measured selectivity ratio value corresponds to H-AARIILRPRFR-NH2 ?
Out: 16

In: Endpoint output: selectivity ratio of H-AARRILRWIFR-NH2 . Value?
Out: 59.3

In: Please report the recorded selectivity ratio for H-AARIILRLRFR-NH2 .
Out: 64

In: Item H-AARIILRWRFR-NH2 has what recorded selectivity ratio?
Out: 94.1

In: # get_value(readout='selectivity ratio', item= H-AARIILRTRFR-NH2 )
Out: 27.4

In: I would be grateful if you could share the reported selectivity ratio for H-AARIILRNRFR-NH2 .
Out: 9.33

In: Can you look up the measured selectivity ratio of H-AARIILRARFR-NH2 for me?
Out: 69.1

In: Quick check: selectivity ratio of H-AARIILRYRFR-NH2 ?
Out: 47

In: Bench note: what selectivity ratio did H-AARIILRFRFR-NH2 show?
Out: 43.5

In: Which selectivity ratio value belongs to H-AAKIILNPKFR-NH2 ?
Out: 2
